Entries and their melting point
measurement_kind: melting point

compound=CC(C)(C)OC(=O)N1CCC2(CC1)CC(=O)N(OCCO)C2=O assay_result="97 to 98 °C"
compound="C=CC(=O)OC(C#N)Cc1ccc(OC)c(OC)c1 (stereo unspecified)" assay_result="154 to 156 °C"
compound="CC(C)(C)OC(=O)NC(C(=O)NOC(c1ccccc1)(c1ccccc1)c1ccccc1)C1(O)CCSC1 (stereo unspecified)" assay_result="220 to 225 °C"
compound="CC(C)(C)OC(=O)N1C(=O)O[C@@H](c2ccncc2)[C@H]1Cc1ccc(C(F)(F)F)cc1 (racemic)" assay_result="166 to 168 °C"
compound=CCOC(=O)Nc1cccc(C(=O)C=CN(C)C)c1 assay_result="121 to 122 °C"
compound=CCCc1nc(S(=O)(=O)Nc2c(F)cccc2F)nn1-c1ccccc1 assay_result="148 to 150 °C"
compound=COC(=O)N(c1cc(C)ccc1C#N)C(C)C assay_result="100 to 101 °C"
compound=CCOC(=O)Cc1cc2c(N)cccc2cn1 assay_result="90 °C"
compound=O=C1NCN(c2ccc(F)cc2)C12CCN(CCNC(c1ccc(F)cc1)c1ccc(F)cc1)CC2 assay_result="193 °C"
compound=CN(C)c1ccc2c(c1)C(=O)CC(c1cccc(OCc3ccccc3)c1)=N2 assay_result="307 to 308 °C"
compound=CCSC(=O)Cc1cc(Oc2ccc(C(F)(F)F)cc2Cl)ccc1[N+](=O)[O-] assay_result="82.5 to 84.2 °C"
compound="COc1ccc(C2=NN(c3ccc(CC(=O)O)cc3)C(=O)[C@H]3CC=CC[C@@H]23)cc1OC (relative stereo)" assay_result="162 °C"
compound=Cc1cc2c(c(O)c1C=O)C(C)(C)CCC2(C)C assay_result="91 to 92 °C"
compound="CN1CCC(c2ccccc2)(N2CCCC2)C(O)C1 (stereo unspecified)" assay_result="149 to 151 °C"
compound=Cc1cc(Oc2cccc(C(=O)O)n2)n(C)n1 assay_result="182 °C"
compound=CCCOc1n[nH]c(=O)n1C assay_result="74 °C"
compound=COCCOCCOc1cc(N)c(C#N)cc1[N+](=O)[O-] assay_result="106 to 108 °C"
compound=CCOC(=O)c1c(OCC)nsc1NC(=O)Oc1ccccc1 assay_result="130 °C"
compound=COCC(=O)N[C@@H]1CCOc2ccccc21 assay_result="109 to 112 °C"
compound="O=C(c1ccccc1)C(Br)OCc1ccc(Cl)cc1Cl (stereo unspecified)" assay_result="89 to 91 °C"
compound=CCCCOC(=O)[C@H]1CN(c2ccc3c(c2)oc(=O)n3CC)C(=O)O1 assay_result="155 to 157 °C"
compound=O=C(O)CCc1cn(Cc2cccc(C(=O)Nc3ccccn3)c2)nc1-c1ccccc1 assay_result="187 to 188 °C"
compound=CCCCCCCCCCCCCCCCCCOc1cc(C(=O)OC)cc(N(CC(=O)OCc2ccccc2)CC(=O)OCc2ccccc2)c1 assay_result="62 to 63 °C"
compound=COc1cccc(C(=O)N2CCc3cc(S(=O)(=O)N4CCN(c5cccc(Cl)c5)CC4)ccc32)c1 assay_result="155 to 156 °C"
compound=CC(C)C[C@H](NC(=O)OC(C)(C)C)C(=O)N[C@H](C(=O)NN)[C@@H](C)O assay_result="146 to 148 °C"
compound="Cc1cc(Br)cnc1CCCCNC1=NS(=O)N=C1N (stereo unspecified)" assay_result="188 to 190 °C"
compound="COc1ccc(S(=O)(=O)N2c3ccccc3CC2C(=O)NO)cc1 (stereo unspecified)" assay_result="142 °C"
compound="CC(C)CC(NC(=O)C1CCCN1)C(=O)NCC(=O)Oc1c(Cl)c(Cl)c(Cl)c(Cl)c1Cl (stereo unspecified)" assay_result="169 to 171 °C"
compound=COc1ccc(-c2sc3c(c2CBr)c(=O)c(-c2cnco2)cn3Cc2ccccc2F)cc1 assay_result="234 to 236 °C"
compound="c1ccc2c(C3CN4CCC3CC4)c[nH]c2c1 (stereo unspecified)" assay_result="214 to 216 °C"
compound=COc1cc(Nc2nccc(-c3ccc(NCCCNC(C)C)nc3)n2)cc(OC)c1OC assay_result="124 to 125 °C"
